// provenance: PubChem BioAssay AID1159580

Assay: chemical genetic growth profiling, strain panel (AID 1159580);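 further: tested at 20 µM; growth read once vehicle control cultures reached saturation at 30 °C; 1 = growth at the plate median or of vehicle wells; lower values mean less growth of the strain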
Settings: S. cerevisiae deletion strains, growth OD, locus YBR279W, strain paf1, active compounds read low
The whole screen tested about 5,500 compounds, of which about 2,000 (36%) were called active. Another 18% or so got no clear call; they are omitted. The list shows a part of the results.

COMPOUND: COc1cc([C@@H]2c3cc4c(cc3[C@H](O)[C@H]3COC(=O)[C@@H]23)OCO4)cc(OC)c1OC
normalized growth: 1.02
//
COMPOUND: OC1C(O)C(O)C(O)C(O)C1O (configuration not stated)
normalized growth: 1
//
COMPOUND: Cn1c(=O)c2[nH]c(C3CCCC3)nc2n(C)c1=O
normalized growth: 0.992
//
COMPOUND: CNCCC=C1c2ccccc2CCc2ccccc21
normalized growth: 0.971
//
COMPOUND: O=c1cc(-c2ccc(O)c(O)c2)oc2ccccc12
normalized growth: 0.977
//
COMPOUND: CN(C)CC/C=C1/c2ccccc2COc2ccccc21
normalized growth: 1.01
//
COMPOUND: COc1cccc(-c2cc(=O)c3ccc(OC)cc3o2)c1
normalized growth: 0.944
//
COMPOUND: COc1ccc(-c2coc3cc(OC(C)=O)cc(OC(C)=O)c3c2=O)cc1
normalized growth: 0.984
//
COMPOUND: CN(C)CCC=C1c2ccccc2CCc2ccccc21
normalized growth: 0.958
//
COMPOUND: O=c1c(-c2ccc(O)cc2)coc2cc(O)cc(O)c12
normalized growth: 1
//
COMPOUND: Cn1nnnc1SCC1=C(C(=O)O)N2C(=O)C(NC(=O)C(O)c3ccccc3)C2SC1 (configuration not stated)
normalized growth: 0.977
//
COMPOUND: CCCCOc1cc(CC2CNC(=O)N2)ccc1OC (configuration not stated)
normalized growth: 0.999
